The measured values listed here are drawn from patent US20230046828A1.

# pKd annotations
Target: T1, RAGE-Fc chimera protein (BioTechne, 1145-RG) (UniProt Q15109 24-344)
T1 construct: Bought reagent; also called Fc-RAGE; not shown: CH domain of IgG (Fc)
T1 sequence (Q15109 24-344, change not shown): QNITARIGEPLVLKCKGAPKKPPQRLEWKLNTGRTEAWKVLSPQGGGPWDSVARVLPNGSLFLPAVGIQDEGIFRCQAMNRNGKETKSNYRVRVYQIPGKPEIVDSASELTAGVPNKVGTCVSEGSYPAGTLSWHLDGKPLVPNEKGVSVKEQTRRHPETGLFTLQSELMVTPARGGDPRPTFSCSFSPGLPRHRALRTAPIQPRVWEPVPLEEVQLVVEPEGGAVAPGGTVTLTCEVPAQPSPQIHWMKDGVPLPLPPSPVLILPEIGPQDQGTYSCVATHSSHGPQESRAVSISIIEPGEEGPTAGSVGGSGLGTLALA
Assay: BLI: RAGE-Fc on AHC sensors, HMGB1 construct 0-25 µM in solution; kinetics plot
Description: RAGE-Fc was immobilized in the surface of AHC sensors and dipped in rising concentration of different HMGB1 constructs. Two experiments were run with different concentration ranges: the three columns of graphs in the left, 0 to 22.22 μM HMGB1 over 9 steps; on the right, 0 to 25 μM over 7 steps. Both are color-coded by concentration (top). Colors indicate the specific construct concentration. Each graph corresponds to a single sensor (replicate). […]
pKd: −log10 of the molar value.
quantityKind: pKd

INSERT INTO assay_data (binder, numericvalue) VALUES
  ('DS-HMGB1 1-184 (ligand, oxidized Box A (disulfide Cys 22-Cys 44)) GKGDPKKPRGKMSSYAFFVQTCREEHKKKHPDASVNFSEFSKKCSERWKTMSAKEKGKFEDMAKADKARYEREMKTYIPPKGETKKKFKDPNAPKRPPSAFFLFCSEYRPKIKGEHPGLSIGDVAKKLGEMWNNTAADDKQPYEKKAAKLKEKYEKDIAAYRAKGKPDAAKKGVVKAEKSKKKK', 6.70),
  ('dBB12L (double Box B HMGB1 construct with 12-residue linker) (ligand, also called dBB12L-HMGB1; dBB-HMGB1) KDPNAPKRPPSAFFLFCSEYRPKIKGEHPGLSIGDVAKKLGEMWNNTAADDKQPYEKKAAKLKEKYEKDIAAYRAKGKPDAAKKGVKDPNAPKRPPSAFFLFCSEYRPKIKGEHPGLSIGDVAKKLGEMWNNTAADDKQPYEKKAAKLKEKYEKDIAAYRAKGKPDAAKKGV', 5.89);
